assay: drug combination growth inhibition, ovarian cancer – cell-based, oncology-focused library, rucaparib conditional, profiling panel (AID 1508598); conditions: patient-derived ovarian cancer cells, CellTiter-Glo viability, 144 h; at 1.25 µM; OCI-P5x cells; with rucaparib 20 µM; active compounds read low; 100% = cells with rucaparib alone
viability values for the compounds below.
Answer in %, number only, no unit symbol.

>>> obs_value("COC(=O)Nc1nc2ccc(C(=O)c3cccs3)cc2[nH]1")
67.3
>>> obs_value("COc1cc2c(N3CCN(C(=O)Nc4ccc(OC(C)C)cc4)CC3)ncnc2cc1OCCCN1CCCCC1")
105
>>> obs_value("CC(C)(C#N)c1cc(Cn2cncn2)cc(C(C)(C)C#N)c1")
111
>>> obs_value("NC(=O)NO")
96.8
>>> obs_value("Cc1nc2ccc(CN(C)c3ccc(C(=O)N[C@@H](CCC(=O)O)C(=O)O)s3)cc2c(=O)[nH]1")
111
>>> obs_value("CC(c1cc2ccccc2s1)N(O)C(N)=O (configuration not stated)")
106
>>> obs_value("Cc1cc2c(C(C)C)c(O)c(O)c(C=O)c2c(O)c1-c1c(C)cc2c(C(C)C)c(O)c(O)c(C=O)c2c1O")
95.9
>>> obs_value("CN(Cc1cnc2nc(N)nc(N)c2n1)c1ccc(C(=O)N[C@@H](CCC(=O)O)C(=O)O)cc1")
101
>>> obs_value("O=NN(CCCl)C(=O)NC1CCCCC1")
90.9
>>> obs_value("Cn1nnc2c(C(N)=O)ncn2c1=O")
106

Lab note: CCC(C)n1ncn(-c2ccc(N3CCN(c4ccc(OC[C@H]5CO[C@](Cn6cncn6)(c6ccc(Cl)cc6Cl)O5)cc4)CC3)cc2)c1=O (some centres not stated) gave viability of 93.3

Lab note: CC[C@@]1(O)C(=O)OCc2c1cc1n(c2=O)Cc2cc3c(CN(C)C)c(O)ccc3nc2-1 gave viability of 3.74

* * *

experiment: viability loss in pontine glioma line – cell-based, SU-DIPG-XIII, MIPE5.0, CellTiter-Glo, qHTS, dose response (AID 1347064); details: CellTiter-Glo ATP luminescence;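 on AC50: cells exposed to compound for 48 hours before the viability read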
Inconclusive results are not listed. Calls of active or inactive are those of the source. Cut-off not given; nearly all actives show AC50 up to about 23 µM.
Returns: one label drawn from TRUE (active), FALSE (inactive)

The examples below pair each entry with its known result.
>>> class_label("CC(=O)[C@]1(O)Cc2c(O)c3c(c(O)c2[C@@H](O[C@H]2C[C@H](N)[C@H](O)[C@H](C)O2)C1)C(=O)c1ccccc1C3=O")
"TRUE"
>>> class_label("COC(=O)Nc1nc2ccc(C(=O)c3cccs3)cc2[nH]1")
"TRUE"
>>> class_label("Nc1ccc(S(N)(=O)=O)cc1")
"FALSE"
>>> class_label("COc1ccc2cc3[n+](cc2c1OC)CCc1cc2c(cc1-3)OCO2")
"TRUE"
>>> class_label("CNC[C@H](O)c1ccc(O)c(O)c1")
"FALSE"

Lookup: Hey, what did the test say about CCC[C@H](N[C@@H](C)C(=O)N1[C@H](C(=O)O)C[C@@H]2CCCC[C@@H]21)C(=O)OCC ?
Found: FALSE

Lookup: Hey, what did the test say about COc1cc(OC)c(C(=O)CCCN2CCCC2)c(OC)c1 ?
Found: FALSE

Lookup: Hey, what did the test say about Cc1nc(-c2ccc(OCC(C)C)c(C#N)c2)sc1C(=O)O ?
Found: FALSE

Lookup: Hey, what did the test say about O=NN(CCCl)C(=O)NC1CCCCC1 ?
Found: FALSE

Lookup: Hey, what did the test say about Oc1ccc(C2CNCCc3c2cc(O)c(O)c3Cl)cc1 (stereo not drawn) ?
Found: FALSE
